Every entry's value here was drawn from patent US11986470B2.

system: LNCaP cells; assay: cells; details: Homo sapiens, 168 h
assay.endpoint: pEC50
Scale: negative log10 of molar concentration, which is what pEC50 denotes.

-- ask Endpoint output: pEC50 of NC(=O)c1cccc2cn(-c3ccc([C@@H]4CCCNC4)cc3)nc12 . Value?
-- reply 5.46

---

test system: VCaP cells; test: cells; conditions: 7-day niraparib treatment
assay.endpoint: pEC50
Please express pEC50 as -log10 of the molar concentration.

-- ask For the compound NC(=O)c1cccc2cn(-c3ccc([C@@H]4CCCNC4)cc3)nc12 [niraparib] , what pEC50 is on record?
-- reply 5.39
